# System: AATT hairpin, 5'-biotin (SPR) (DNA, hairpin) CGAAATTGCCTCTGCAATTCG
# procedure-text: biosensor SPR, steady-state one-site fit
# condition-label: Na+ 100 mM (Table 1 note 10 mM); 50 mM Tris-HCl, 1 mM EDTA, 0.05% P20, pH 7.4
observation-type: KA (M⁻¹)

Answered examples (2):
• N=C(N)c1ccc2[nH]c(-c3ccc(-c4ccc(C(=N)N)o4)o3)nc2c1 = 2.1e+06
• N=C(N)c1ccc2cc(-c3ccc(-c4ccc(C(=N)N)s4)o3)[nH]c2c1 = 6.5e+06

(A) N=C(N)c1ccc2cc(-c3ccc(-c4ccc(C(=N)N)o4)s3)[nH]c2c1
(B) N=C(N)c1ccc2[nH]c(-c3ccc(-c4ccc(C(=N)N)s4)o3)nc2c1
QUERY: Given the listed items, does A or B have the lesser reported KA? Respond with the label that goes with your answer.
RESULT: B
